Reported Kd by item:
Target: T1, mFz: Fz domain and C-terminal flanking sequence of mouse MuSK (D307 to T494) with C-terminal Avi- and … (mouse, UniProt Q61006 307-494, limits assumed, biotinylated in vitro using the BirA enzyme)
T1 construct: also called mouse Fz; not shown: Avi- and His6-tags
T1 sequence (looked up): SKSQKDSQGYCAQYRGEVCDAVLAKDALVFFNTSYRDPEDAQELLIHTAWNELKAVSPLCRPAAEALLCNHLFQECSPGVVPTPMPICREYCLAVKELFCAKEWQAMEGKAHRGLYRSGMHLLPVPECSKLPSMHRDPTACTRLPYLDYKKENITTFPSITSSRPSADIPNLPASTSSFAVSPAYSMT
Assay: bead-binding assay, Fab format: biotinylated antigen on streptavidin beads, flow cytometry, 1:1 fit; average ± s.d., n=3
Give just the number in nM; leave the unit off.

X13 Fab (Fab, V domains shown, also called Fab Clone X13) VH: EVQLVESGGGLVQPGGSLRLSCAASGFTISSSSIHWVRQAPGKGLEWVASISSSSGSTSYADSVKGRFTISADTSKNTAYLQMNSLRAEDTAVYYCARSSEHWYTIGYYGIDYWGQGTLVTVSS VL: DIQMTQSPSSLSASVGDRVTITCRASQSVSSAVAWYQQKPGKAPKLLIYSASSLYSGVPSRFSGSRSGTDFTLTISSLQPEDFATYYCQQSYGSFSLITFGQGTKVEIK = 1.56

Now consider the entry below.
Kd recorded for this binder, X17 Fab (Fab, V domains shown, Fab format) VH: EVQLVESGGGLVQPGGSLRLSCAASGFTISYSSIHWVRQAPGKGLEWVASIYSSSGSTYYADSVKGRFTISADTSKNTAYLQMNSLRAEDTAVYYCARGDHGYYVFGYLGMDYWGQGTLVTVSS VL: DIQMTQSPSSLSASVGDRVTITCRASQSVSSAVAWYQQKPGKAPKLLIYSASSLYSGVPSRFSGSRSGTDFTLTISSLQPEDFATYYCQQSYKPGALITFGQGTKVEIK , is 0.47
